The measured values listed here are drawn from ChEMBL document CHEMBL3808374.

IC50 by entry:
target: Cysteinyl leukotriene receptor 1 (Homo sapiens, UniProt Q9Y271); assay: Antagonist activity against CysLT1 receptor (unknown origin) expressed in HEK293 cells assessed as inhibition of LTD4-induced calcium mobilization pre-incubated for 10 mins before LTD4 addition by Fluo-4 AM dye based fluorimetric assay
Sequence (Q9Y271 whole entry): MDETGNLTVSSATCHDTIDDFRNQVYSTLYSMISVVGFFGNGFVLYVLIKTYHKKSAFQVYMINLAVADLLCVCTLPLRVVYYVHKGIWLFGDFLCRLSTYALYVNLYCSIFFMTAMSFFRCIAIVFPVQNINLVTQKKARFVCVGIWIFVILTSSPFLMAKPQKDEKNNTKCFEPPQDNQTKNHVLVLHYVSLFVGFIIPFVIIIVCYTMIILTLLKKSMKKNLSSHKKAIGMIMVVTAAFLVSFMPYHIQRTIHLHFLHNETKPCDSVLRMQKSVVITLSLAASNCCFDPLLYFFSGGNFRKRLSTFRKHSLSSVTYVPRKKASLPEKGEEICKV
measuredEndpoint: IC50 (nM)

[[record]]
compound = "O=C(/C=C/c1c[nH]c2cc(Cl)cc(Cl)c12)OCc1cccc(/C=C/c2ccc3ccc(Cl)cc3n2)c1"
studytarget = "Cysteinyl leukotriene receptor 1 (Homo sapiens, UniProt Q9Y271)"
measuredendpoint = "IC50"
censorsymbol = "="
measvalue = 31000

[[record]]
compound = "CCCCCOC(=O)/C=C/c1c(C(=O)O)[nH]c2cc(Cl)cc(Cl)c12"
studytarget = "Cysteinyl leukotriene receptor 1 (Homo sapiens, UniProt Q9Y271)"
measuredendpoint = "IC50"
censorsymbol = ">"
measvalue = 100000

[[record]]
compound = "O=C(O)c1ccc(OCCCc2ccc(OCCCCOc3ccccc3)cc2)c(C(=O)NC2CCCC(C(=O)O)C2)c1 (centres undefined)"
studytarget = "Cysteinyl leukotriene receptor 1 (Homo sapiens, UniProt Q9Y271)"
measuredendpoint = "IC50"
censorsymbol = ">"
measvalue = 2500

[[record]]
compound = "O=C(/C=C/c1c(C(=O)O)[nH]c2c(Cl)cccc12)Nc1cccc(/C=C/c2ccc3ccc(Cl)cc3n2)c1"
studytarget = "Cysteinyl leukotriene receptor 1 (Homo sapiens, UniProt Q9Y271)"
measuredendpoint = "IC50"
censorsymbol = "="
measvalue = 16

[[record]]
compound = "O=C(/C=C/c1c(C(=O)O)[nH]c2cc(F)cc(F)c12)Nc1cccc(/C=C/c2ccc3ccc(Cl)cc3n2)c1"
studytarget = "Cysteinyl leukotriene receptor 1 (Homo sapiens, UniProt Q9Y271)"
measuredendpoint = "IC50"
censorsymbol = "="
measvalue = 38

[[record]]
compound = "O=C(/C=C/c1c(C(=O)O)[nH]c2cc(Cl)cc(Cl)c12)OCCCCc1ccccc1"
studytarget = "Cysteinyl leukotriene receptor 1 (Homo sapiens, UniProt Q9Y271)"
measuredendpoint = "IC50"
censorsymbol = ">"
measvalue = 100000

[[record]]
compound = "O=C(/C=C/c1c(C(=O)O)[nH]c2cc(Cl)cc(Cl)c12)Nc1cccc(/C=C/c2ccc3ccc(Cl)cc3n2)c1"
studytarget = "Cysteinyl leukotriene receptor 1 (Homo sapiens, UniProt Q9Y271)"
measuredendpoint = "IC50"
censorsymbol = "="
measvalue = 290

[[record]]
compound = "O=C(/C=C/c1c(C(=O)O)[nH]c2cc(Cl)cc(Cl)c12)OCCCc1ccccc1"
studytarget = "Cysteinyl leukotriene receptor 1 (Homo sapiens, UniProt Q9Y271)"
measuredendpoint = "IC50"
censorsymbol = ">"
measvalue = 100000

[[record]]
compound = "O=C(/C=C/c1c(C(=O)O)[nH]c2ccccc12)Nc1cccc(/C=C/c2ccc3ccc(Cl)cc3n2)c1"
studytarget = "Cysteinyl leukotriene receptor 1 (Homo sapiens, UniProt Q9Y271)"
measuredendpoint = "IC50"
censorsymbol = "="
measvalue = 9

[[record]]
compound = "O=C(/C=C/c1c(C(=O)O)[nH]c2cccc(Cl)c12)Nc1cccc(/C=C/c2ccc3ccc(Cl)cc3n2)c1"
studytarget = "Cysteinyl leukotriene receptor 1 (Homo sapiens, UniProt Q9Y271)"
measuredendpoint = "IC50"
censorsymbol = "="
measvalue = 67

[[record]]
compound = "COc1ccc2c(/C=C/C(=O)Nc3cccc(/C=C/c4ccc5ccc(Cl)cc5n4)c3)c(C(=O)O)[nH]c2c1"
studytarget = "Cysteinyl leukotriene receptor 1 (Homo sapiens, UniProt Q9Y271)"
measuredendpoint = "IC50"
censorsymbol = "="
measvalue = 12

[[record]]
compound = "N#CCCCCOC(=O)/C=C/c1c(C(=O)O)[nH]c2cc(Cl)cc(Cl)c12"
studytarget = "Cysteinyl leukotriene receptor 1 (Homo sapiens, UniProt Q9Y271)"
measuredendpoint = "IC50"
censorsymbol = ">"
measvalue = 100000

[[record]]
compound = "O=C(/C=C/c1c(C(=O)O)[nH]c2ccc(Cl)cc12)Nc1cccc(/C=C/c2ccc3ccc(Cl)cc3n2)c1"
studytarget = "Cysteinyl leukotriene receptor 1 (Homo sapiens, UniProt Q9Y271)"
measuredendpoint = "IC50"
censorsymbol = "="
measvalue = 17

[[record]]
compound = "O=C(/C=C/c1c(C(=O)O)[nH]c2cc(Cl)ccc12)Nc1cccc(/C=C/c2ccc3ccc(Cl)cc3n2)c1"
studytarget = "Cysteinyl leukotriene receptor 1 (Homo sapiens, UniProt Q9Y271)"
measuredendpoint = "IC50"
censorsymbol = "="
measvalue = 22

[[record]]
compound = "O=C(CCc1c(C(=O)O)[nH]c2ccccc12)Nc1cccc(/C=C/c2ccc3ccc(Cl)cc3n2)c1"
studytarget = "Cysteinyl leukotriene receptor 1 (Homo sapiens, UniProt Q9Y271)"
measuredendpoint = "IC50"
censorsymbol = "="
measvalue = 58

[[record]]
compound = "O=C(/C=C/c1c(C(=O)O)[nH]c2cc(Cl)cc(Cl)c12)OC1CCCCC1"
studytarget = "Cysteinyl leukotriene receptor 1 (Homo sapiens, UniProt Q9Y271)"
measuredendpoint = "IC50"
censorsymbol = ">"
measvalue = 100000

[[record]]
compound = "O=C(/C=C/c1c(C(=O)O)[nH]c2cc(Cl)cc(Cl)c12)OCc1ccccc1"
studytarget = "Cysteinyl leukotriene receptor 1 (Homo sapiens, UniProt Q9Y271)"
measuredendpoint = "IC50"
censorsymbol = ">"
measvalue = 100000

[[record]]
compound = "CC(C)CCCOC(=O)/C=C/c1c(C(=O)O)[nH]c2cc(Cl)cc(Cl)c12"
studytarget = "Cysteinyl leukotriene receptor 1 (Homo sapiens, UniProt Q9Y271)"
measuredendpoint = "IC50"
censorsymbol = ">"
measvalue = 100000

[[record]]
compound = "O=C(/C=C/c1c(C(=O)O)[nH]c2cc(Cl)cc(Cl)c12)OCc1cccc(/C=C/c2ccc3ccc(Cl)cc3n2)c1"
studytarget = "Cysteinyl leukotriene receptor 1 (Homo sapiens, UniProt Q9Y271)"
measuredendpoint = "IC50"
censorsymbol = "="
measvalue = 660

